- Test system: Atypical kinase COQ8A, mitochondrial (Homo sapiens, UniProt Q8NI60); also: in the data inactive means no Kd found up to 30 µM
- Sequence (Q8NI60 whole entry): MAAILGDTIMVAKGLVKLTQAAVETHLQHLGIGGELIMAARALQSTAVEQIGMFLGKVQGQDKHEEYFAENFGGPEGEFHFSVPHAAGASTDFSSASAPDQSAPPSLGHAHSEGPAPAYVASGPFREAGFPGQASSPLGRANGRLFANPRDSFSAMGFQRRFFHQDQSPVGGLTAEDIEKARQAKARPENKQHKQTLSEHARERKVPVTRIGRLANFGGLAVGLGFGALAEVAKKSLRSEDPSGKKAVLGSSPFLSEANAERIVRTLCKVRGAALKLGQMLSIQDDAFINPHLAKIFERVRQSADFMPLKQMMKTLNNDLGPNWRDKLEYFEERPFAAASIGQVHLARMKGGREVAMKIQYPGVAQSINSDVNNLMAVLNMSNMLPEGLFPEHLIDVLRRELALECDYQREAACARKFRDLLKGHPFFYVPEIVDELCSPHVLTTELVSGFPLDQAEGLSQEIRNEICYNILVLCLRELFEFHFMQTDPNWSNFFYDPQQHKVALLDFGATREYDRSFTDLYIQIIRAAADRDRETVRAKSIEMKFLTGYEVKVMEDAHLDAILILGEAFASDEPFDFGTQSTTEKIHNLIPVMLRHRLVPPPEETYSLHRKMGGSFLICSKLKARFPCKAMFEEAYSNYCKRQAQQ
The source made the active and inactive calls.
Possible outcomes: active, inactive

{"Compound": "CN(C[C@@H]1COCCO1)S(=O)(=O)Nc1ccc2ccc3ncc(-c4cnn(C)c4)cc3c(=O)c2c1 [MK-2461]", "Cat": "inactive"}
{"Compound": "CNC(=O)c1cccc2cc(Oc3ccnc4cc(OCC5(N)CC5)c(OC)cc34)ccc12 [LUCITANIB]", "Cat": "inactive"}
{"Compound": "COc1cc2c(Nc3ccc(Cl)c(Cl)c3F)ncnc2cc1OC[C@@H]1C[C@@H]2CN(C)C[C@@H]2C1 [TESEVATINIB]", "Cat": "inactive"}
{"Compound": "COc1cc([C@@H]2c3cc4c(cc3[C@H](O)[C@H]3COC(=O)[C@@H]23)OCO4)cc(OC)c1OC [AXL-1717]", "Cat": "inactive"}
{"Compound": "CO[C@H]1C[C@@H]2CC[C@@H](C)[C@@](O)(O2)C(=O)C(=O)N2CCCC[C@H]2C(=O)O[C@H]([C@H](C)C[C@@H]2CC[C@@H](O)[C@H](OC)C2)CC(=O)[C@H](C)/C=C(\\C)[C@@H](O)[C@@H](OC)C(=O)[C@H](C)C[C@H](C)/C=C/C=C/C=C/1C [SIROLIMUS]", "Cat": "inactive"}
{"Compound": "CO[C@H]1C[C@@H]2CC[C@@H](C)[C@@](O)(O2)C(=O)C(=O)N2CCCC[C@H]2C(=O)O[C@H]([C@H](C)C[C@@H]2CC[C@@H](OC(=O)C(C)(CO)CO)[C@H](OC)C2)CC(=O)[C@H](C)/C=C(\\C)[C@@H](O)[C@@H](OC)C(=O)[C@H](C)C[C@H](C)/C=C/C=C/C=C/1C [TEMSIROLIMUS]", "Cat": "inactive"}
{"Compound": "Cc1[nH]c(/C=C2\\C(=O)Nc3ccccc32)c(C)c1CCC(=O)O [ORANTINIB]", "Cat": "inactive"}
{"Compound": "CNC(=O)c1nn(C)c2c1C(C)(C)Cc1cnc(Nc3ccc(N4CCN(C)CC4)cc3)nc1-2 [MILCICLIB]", "Cat": "active"}

* * *

Calls of active or inactive are those of the source.
As a worked illustration, we turn to Kd data collected for Mitogen-activated protein kinase kinase kinase kinase 3 (Homo sapiens).

{"Compound": "CCS(=O)(=O)c1cccc(-c2cc(C(=O)NC3CCN(C)CC3)c(C)c3[nH]c4ncc(C)cc4c23)c1 [TAK-901]", "Kd": "9.28 µM"}
{"Compound": "COCc1c(-c2ccc(NC(=O)Nc3cc(C(F)(F)F)ccc3F)c(F)c2)c2c(N)ncnn2c1CN1CCOCC1", "Kd": "> 30 µM (inactive)"}
{"Compound": "CC(=O)c1cnc2ccc(-c3cc(Cl)c(O)c(Cl)c3)nc2c1N[C@H]1CC[C@H](CN(C)C)CC1", "Kd": "> 30 µM (inactive)"}
{"Compound": "CO[C@H]1C[C@@H]2CC[C@@H](C)[C@@](O)(O2)C(=O)C(=O)N2CCCC[C@H]2C(=O)O[C@H]([C@H](C)C[C@@H]2CC[C@@H](O)[C@H](OC)C2)CC(=O)[C@H](C)/C=C(\\C)[C@@H](O)[C@@H](OC)C(=O)[C@H](C)C[C@H](C)/C=C/C=C/C=C/1C [SIROLIMUS]", "Kd": "> 30 µM (inactive)"}
{"Compound": "CN(C[C@@H]1COCCO1)S(=O)(=O)Nc1ccc2ccc3ncc(-c4cnn(C)c4)cc3c(=O)c2c1 [MK-2461]", "Kd": "> 30 µM (inactive)"}
{"Compound": "O=C(Cc1ccc(-c2ccc(OCCN3CCOCC3)cc2)cn1)NCc1ccccc1 [TIRBANIBULIN]", "Kd": "> 30 µM (inactive)"}
{"Compound": "COCC(=O)NC/C=C/c1ccc2ncnc(Nc3ccc(Oc4ccc(C)nc4)c(C)c3)c2c1 [CP-724714]", "Kd": "> 30 µM (inactive)"}
{"Compound": "N#CC1(c2ccc(NC(=O)c3cccnc3NCc3ccncc3)cc2)CCCC1 [RIVOCERANIB]", "Kd": "> 30 µM (inactive)"}
{"Compound": "C[C@H]1CNCCCN1S(=O)(=O)c1cccc2cncc(F)c12", "Kd": "3.22 µM"}
{"Compound": "Cc1csc(-c2nnc(Nc3ccc(Oc4ncccc4-c4ccnc(N)n4)cc3)c3ccccc23)c1 [AMG-900]", "Kd": "> 30 µM (inactive)"}
{"Compound": "COc1cc([C@@H]2c3cc4c(cc3[C@H](O)[C@H]3COC(=O)[C@@H]23)OCO4)cc(OC)c1OC [AXL-1717]", "Kd": "> 30 µM (inactive)"}
{"Compound": "COc1c(OCCCN2CCOCC2)ccc2c1N=C(NC(=O)c1cnc(N)nc1)N1CCN=C21 [COPANLISIB]", "Kd": "> 30 µM (inactive)"}
{"Compound": "CN1C/C=C/CCOc2cccc(c2)-c2ccnc(n2)Nc2cccc(c2)C1 [ZOTIRACICLIB]", "Kd": "0.85 µM (active)"}
{"Compound": "FC(F)(F)c1ccc(/C=C/c2nc(COc3ccc(CCCCn4ccnn4)cc3)co2)cc1 [MUBRITINIB]", "Kd": "> 30 µM (inactive)"}
{"Compound": "Cn1cnc2c(F)c(Nc3ccc(Br)cc3F)c(C(=O)NOCCO)cc21 [BINIMETINIB]", "Kd": "> 30 µM (inactive)"}
{"Compound": "NC(=O)Nc1cc(-c2cccc(F)c2)sc1C(=O)N[C@H]1CCCNC1 [AZD-7762]", "Kd": "0.363 µM (active)"}
{"Compound": "O=C(Nc1nc2cccc(-c3ccc(CN4CCS(=O)(=O)CC4)cc3)n2n1)C1CC1 [FILGOTINIB]", "Kd": "> 30 µM (inactive)"}
{"Compound": "Cc1cccc(-c2nn3c(c2-c2ccnc4ccc(C(N)=O)cc24)CCC3)n1 [GALUNISERTIB]", "Kd": "> 30 µM (inactive)"}
{"Compound": "Cc1nc(Nc2n[nH]c3c2CN(C(=O)N[C@H](CN(C)C)c2ccccc2)C3(C)C)c2sccc2n1 [PF-03758309]", "Kd": "2.19 µM (active)"}
{"Compound": "CNC(=O)c1nn(C)c2c1C(C)(C)Cc1cnc(Nc3ccc(N4CCN(C)CC4)cc3)nc1-2 [MILCICLIB]", "Kd": "2.06 µM (active)"}

* * *

- Test system: Non-receptor tyrosine-protein kinase TNK1 (Homo sapiens, UniProt Q13470); also: in the data inactive means no Kd found up to 30 µM
- Sequence (Q13470 whole entry): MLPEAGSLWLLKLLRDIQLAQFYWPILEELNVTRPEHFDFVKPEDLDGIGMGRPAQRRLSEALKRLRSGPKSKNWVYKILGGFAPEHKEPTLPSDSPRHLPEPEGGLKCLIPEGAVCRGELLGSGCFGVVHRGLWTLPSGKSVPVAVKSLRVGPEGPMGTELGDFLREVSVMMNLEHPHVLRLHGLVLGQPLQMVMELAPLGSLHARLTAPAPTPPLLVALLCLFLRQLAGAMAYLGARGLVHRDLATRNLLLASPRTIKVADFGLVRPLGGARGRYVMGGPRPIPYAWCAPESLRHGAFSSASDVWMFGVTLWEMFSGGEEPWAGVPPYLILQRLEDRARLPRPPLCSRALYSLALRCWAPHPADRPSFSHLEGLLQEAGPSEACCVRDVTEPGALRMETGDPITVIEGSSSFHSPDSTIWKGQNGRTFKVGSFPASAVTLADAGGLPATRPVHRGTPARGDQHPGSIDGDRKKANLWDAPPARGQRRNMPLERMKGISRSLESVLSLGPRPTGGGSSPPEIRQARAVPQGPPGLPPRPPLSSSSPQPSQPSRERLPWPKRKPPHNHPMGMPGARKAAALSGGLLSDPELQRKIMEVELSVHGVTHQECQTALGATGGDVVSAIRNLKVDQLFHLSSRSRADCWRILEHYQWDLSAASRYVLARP
Counter-ions that a name gives are not always drawn. Activity calls are given as the source filed them.
Outcomes: True for active, False for inactive

{"Molecule": "Cn1ncc(Cl)c1-c1cc(C(=O)N[C@H](CN)Cc2ccc(F)c(F)c2)oc1Cl [UPROSERTIB]", "Cat": "False"}
{"Molecule": "Cc1cc(C(=O)NOCCO)c(Nc2ccc(I)cc2F)n(C)c1=O [AZD-8330]", "Cat": "False"}
{"Molecule": "C[C@H]1CNCCCN1S(=O)(=O)c1cccc2cncc(F)c12", "Cat": "False"}
{"Molecule": "C=CC(=O)Nc1cc2c(Nc3ccc(F)c(Cl)c3)ncnc2cc1C#CC(C)(C)N1CCN(C)CC1 [AV-412 FREE BASE]", "Cat": "False"}
{"Molecule": "CO[C@H]1C[C@@H]2CC[C@@H](C)[C@@](O)(O2)C(=O)C(=O)N2CCCC[C@H]2C(=O)O[C@H]([C@H](C)C[C@@H]2CC[C@@H](OP(C)(C)=O)[C@H](OC)C2)CC(=O)[C@H](C)/C=C(\\C)[C@@H](O)[C@@H](OC)C(=O)[C@H](C)C[C@H](C)/C=C/C=C/C=C/1C [RIDAFOROLIMUS]", "Cat": "False"}
{"Molecule": "Cc1cccc(-c2nn3c(c2-c2ccnc4ccc(C(N)=O)cc24)CCC3)n1 [GALUNISERTIB]", "Cat": "False"}
{"Molecule": "C[C@@H](Oc1cc(C(=O)Nc2ccc(C(=O)N3CCN(C)CC3)cc2)nnc1N)c1c(Cl)ccc(F)c1Cl", "Cat": "False"}
{"Molecule": "CCS(=O)(=O)N1CCN(c2ccc(Nc3ncc(C(N)=O)c(NC4CC4)n3)cc2)CC1 [Cerdulatinib Hydrochloride]", "Cat": "False"}
{"Molecule": "COc1c(OCCCN2CCOCC2)ccc2c1N=C(NC(=O)c1cnc(N)nc1)N1CCN=C21 [COPANLISIB]", "Cat": "False"}
{"Molecule": "COc1cc2c(Nc3ccc(Cl)c(Cl)c3F)ncnc2cc1OC[C@@H]1C[C@@H]2CN(C)C[C@@H]2C1 [TESEVATINIB]", "Cat": "False"}
{"Molecule": "Nc1ncnc2c1c(-c1cccc(OCc3ccccc3)c1)cn2[C@H]1C[C@@H](CN2CCC2)C1 [AEW-541]", "Cat": "False"}
{"Molecule": "COCc1c(-c2ccc(NC(=O)Nc3cc(C(F)(F)F)ccc3F)c(F)c2)c2c(N)ncnn2c1CN1CCOCC1", "Cat": "True"}
{"Molecule": "Cc1nc2cc(-n3ncc(C(=O)c4cc5ccccc5[nH]4)c3N)ccc2[nH]1 [FGFR INHIBITOR DEBIO 1347]", "Cat": "False"}
{"Molecule": "Cc1cc(Nc2ncc(Cl)c(Nc3ccccc3S(=O)(=O)C(C)C)n2)c(OC(C)C)cc1C1CCNCC1 [CERITINIB]", "Cat": "True"}
{"Molecule": "COc1cc2ncnc(Oc3cccc(NC(=O)Nc4cc(C(C)(C)C(F)(F)F)on4)c3)c2cc1OC [CEP-32496]", "Cat": "False"}
{"Molecule": "O=C(Cc1ccc(-c2ccc(OCCN3CCOCC3)cc2)cn1)NCc1ccccc1 [TIRBANIBULIN]", "Cat": "False"}
